- Test system: S. pyogenes UNT-014, MP-625 MacRes
- assayExplanation: MIC determination
- Assay type: cell-based
- runParameters: Streptococcus pyogenes; S. pyogenes UNT-014, MP-625 MacRes; read-out: MIC
testReadout: MIC

Solved cases (3 shown):
molecule	MIC
CSC1O[C@H]([C@H](NC(=O)[C@H]2NC[C@@H]3CCCO[C@H]32)[C@H](C)Cl)C(O)[C@@H](O)[C@H]1O (stereo partly drawn)	0.0625 µg/mL
CSC1O[C@H]([C@H](NC(=O)[C@H]2NC[C@@H]3C=CCO[C@@H]23)[C@H](C)Cl)C(O)[C@@H](O)[C@H]1O (stereo partly drawn)	0.125 µg/mL
CSC1O[C@H]([C@H](NC(=O)[C@H]2NC[C@@H]3CC=CCO[C@H]32)[C@H](C)Cl)C(O)[C@@H](O)[C@H]1O (stereo partly drawn)	≤ 0.0313 µg/mL

Give me MIC for each of these molecules, listed below.
1. CSC1O[C@H]([C@H](NC(=O)[C@H]2NC[C@@H]3C[C@H]4OC(C)(C)O[C@H]4CO[C@H]32)[C@H](C)Cl)C(O)[C@@H](O)[C@H]1O (stereo partly drawn)
2. CSC1O[C@H]([C@H](NC(=O)[C@H]2NC[C@@H]3CC(F)(F)CCO[C@H]32)[C@H](C)Cl)C(O)[C@@H](O)[C@H]1O (stereo partly drawn)
3. CCC[C@@H]1C[C@@H](C(=O)N[C@@H]([C@H]2O[C@H](SC)[C@H](O)[C@@H](O)[C@H]2O)[C@H](C)Cl)N(C)C1 [Clindamycin, clindamycin, reference compound]
4. CSC1O[C@H]([C@H](NC(=O)[C@H]2NC[C@@H]3CCCCO[C@H]32)[C@H](C)Cl)C(O)[C@@H](O)[C@H]1O (stereo partly drawn)
5. CSC1O[C@H]([C@H](NC(=O)[C@@H]2[C@@H]3OCCCC[C@H]3CN2C)[C@H](C)Cl)C(O)C(O)[C@H]1O (stereo partly drawn)
6. CSC1O[C@H]([C@H](NC(=O)[C@H]2NC[C@@H]3CN(Cc4ccccc4)CCO[C@H]32)[C@H](C)Cl)C(O)[C@@H](O)[C@H]1O (stereo partly drawn)

1: 29 µg/mL; 2: ≤ 0.0313 µg/mL; 3: ≤ 0.0313 µg/mL; 4: < 0.0313 µg/mL; 5: ≤ 0.0313 µg/mL; 6: 0.125 µg/mL

----------
- Test system: S. pneumoniae ATCC 49619
- assayExplanation: MIC determination
- Assay type: cell-based
- runParameters: Streptococcus pneumoniae, ATCC49619; S. pneumoniae ATCC 49619; read-out: MIC
Exercise: for every item that follows, state its recorded MIC.
Numbers only, in µg/mL.

compound	MIC [µg/mL]
CSC1O[C@H]([C@H](NC(=O)[C@H]2NC[C@@H]3CC(NCc4ccc(F)cc4)CCO[C@H]32)[C@H](C)Cl)C(O)[C@@H](O)[C@H]1O (stereo partly shown)	32

Give me MIC for each of these compounds, listed below.
1. CSC1O[C@H]([C@H](NC(=O)[C@H]2NC[C@@H]3C=CCO[C@@H]23)[C@H](C)Cl)C(O)[C@@H](O)[C@H]1O (stereo partly shown)
2. CSC1O[C@H]([C@H](NC(=O)[C@H]2NC[C@@H]3C=C(c4ccccc4F)CCO[C@@H]23)[C@H](C)Cl)C(O)[C@@H](O)[C@H]1O (stereo partly shown)
3. CSC1O[C@H]([C@H](NC(=O)[C@H]2NC[C@@H]3C[C@H]4C[C@H]4CO[C@H]32)[C@H](C)Cl)C(O)C(O)[C@H]1O (stereo in doubt)

1: 0.0625; 2: 0.12; 3: 0.12

Hello, the source for this data is patent US11767341B2, in case you need it.
